- test.method.notes: Ratio of drug level in brain to plasma in rat at 0.25 mg/kg, iv administered through cassette dosing at 0.25 hrs
- Type: ADME, organism-based
measure: Kp

Reference set, count: 5
[
  {
    "smiles.record": "Clc1ccc(CN2CCO[C@H](COc3ccccc3)C2)cc1",
    "Kp": 4.62
  },
  {
    "smiles.record": "Cc1ccc(CN2CCO[C@H](CSc3ccccc3)C2)cc1C",
    "Kp": 5.73
  },
  {
    "smiles.record": "Clc1ccc2c(CN3CCO[C@H](COc4ccccc4)C3)c[nH]c2c1",
    "Kp": 3.29
  },
  {
    "smiles.record": "Cn1ncc2cc(CN3CCO[C@H](COc4ccccc4)C3)ccc21",
    "Kp": 2.23
  },
  {
    "smiles.record": "Clc1ccc(CN2CCO[C@H](CSc3ccccc3)C2)cc1",
    "Kp": 5.03
  }
]

Please examine the following record next.
Lookup: For the compound COc1ccc(CN2CCO[C@H](COc3ccccc3)C2)cc1F , report Kp.
Found: 7.38

* * *

# Fu per entry
- test.method.notes: Fraction unbound in human plasma by equilibrium dialysis method
- Assay type: ADME, cell-free
Output: the number by itself.

[
  {
    "smiles.record": "Fc1ccc2c(CN3CCO[C@H](COc4cccc(F)n4)C3)c[nH]c2c1",
    "Fu": 0.009
  },
  {
    "smiles.record": "Clc1ccc(CN2CCO[C@H](COc3ccccc3)C2)cc1Cl",
    "Fu": 0.002
  },
  {
    "smiles.record": "Clc1ccc(CN2CCO[C@H](COc3cccc(Cl)n3)C2)cc1",
    "Fu": 0.004
  },
  {
    "smiles.record": "COc1cc(CN2CCO[C@H](COc3cccc(F)c3)C2)ccc1Cl",
    "Fu": 0.011
  },
  {
    "smiles.record": "c1ccc(OC[C@@H]2CN(Cc3cn4ccccc4n3)CCO2)cc1",
    "Fu": 0.057
  },
  {
    "smiles.record": "COc1ccc(CN2CCO[C@H](COc3ccccc3)C2)cc1Cl",
    "Fu": 0.01
  },
  {
    "smiles.record": "Clc1ccc(CN2CCO[C@H](COc3ccccc3)C2)cc1",
    "Fu": 0.007
  },
  {
    "smiles.record": "Cc1ccc(CN2CCO[C@H](CSc3ccccc3)C2)cc1C",
    "Fu": 0.001
  },
  {
    "smiles.record": "Fc1ccc2c(CN3CCO[C@H](COc4cccc(Cl)n4)C3)c[nH]c2c1",
    "Fu": 0.015
  },
  {
    "smiles.record": "Clc1ccc2c(CN3CCO[C@H](COc4ccccc4)C3)c[nH]c2c1",
    "Fu": 0.006
  }
]

Lookup: Using known records, supply Fu for Clc1ccc(CN2CCO[C@H](CSc3ccccc3)C2)cc1
Found: 0.008

* * *

Entries and their pIC50
- assay.system: D(4) dopamine receptor (Homo sapiens, UniProt P21917)
- Sequence (P21917 whole entry): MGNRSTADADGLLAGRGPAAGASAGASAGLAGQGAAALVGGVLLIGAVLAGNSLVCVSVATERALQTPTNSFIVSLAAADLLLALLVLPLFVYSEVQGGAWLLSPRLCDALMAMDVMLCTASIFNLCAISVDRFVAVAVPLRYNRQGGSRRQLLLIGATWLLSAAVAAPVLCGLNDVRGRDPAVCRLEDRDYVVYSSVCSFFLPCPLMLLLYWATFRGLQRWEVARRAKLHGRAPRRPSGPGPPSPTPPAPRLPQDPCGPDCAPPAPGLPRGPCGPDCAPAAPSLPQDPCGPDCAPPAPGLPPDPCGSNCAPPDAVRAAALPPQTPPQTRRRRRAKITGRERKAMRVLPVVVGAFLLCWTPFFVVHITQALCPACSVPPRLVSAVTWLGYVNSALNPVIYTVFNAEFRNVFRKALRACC
- test.method.notes: Displacement of [3H]-Spiperone from human recombinant dopamine D4 receptor expressed in CHOK1 cells
The value called pIC50 is obtained by taking minus log10 of the concentration in mol/L.

Would you please look over these solved cases?
[
  {
    "smiles.record": "Fc1ccc(CN2CCO[C@H](COc3ccccc3)C2)cc1F",
    "assay.system": "D(4) dopamine receptor (Homo sapiens, UniProt P21917)",
    "endpoint.value": 6.28
  },
  {
    "smiles.record": "FC(F)(F)Oc1ccc(CN2CCO[C@H](COc3ccccc3)C2)cc1",
    "assay.system": "D(4) dopamine receptor (Homo sapiens, UniProt P21917)",
    "endpoint.value": 6.74
  },
  {
    "smiles.record": "COc1ccc(CN2CCO[C@H](COc3ccccc3)C2)cc1OC",
    "assay.system": "D(4) dopamine receptor (Homo sapiens, UniProt P21917)",
    "endpoint.value": 6.82
  },
  {
    "smiles.record": "c1ccc(OC[C@@H]2CN(Cc3ccc4ccccc4n3)CCO2)cc1",
    "assay.system": "D(4) dopamine receptor (Homo sapiens, UniProt P21917)",
    "endpoint.value": 5.95
  },
  {
    "smiles.record": "Clc1ccc2c(CN3CCO[C@H](COc4ccccc4)C3)c[nH]c2c1",
    "assay.system": "D(4) dopamine receptor (Homo sapiens, UniProt P21917)",
    "endpoint.value": 8.10
  }
]

Lookup: Tell me measured pIC50 for COc1cc(CN2CCO[C@H](COc3cccc(C#N)c3)C2)ccc1Cl please.
Found: 7.00

* * *

- assay.system: D(1A) dopamine receptor (Homo sapiens, UniProt P21728)
- Sequence (P21728 whole entry): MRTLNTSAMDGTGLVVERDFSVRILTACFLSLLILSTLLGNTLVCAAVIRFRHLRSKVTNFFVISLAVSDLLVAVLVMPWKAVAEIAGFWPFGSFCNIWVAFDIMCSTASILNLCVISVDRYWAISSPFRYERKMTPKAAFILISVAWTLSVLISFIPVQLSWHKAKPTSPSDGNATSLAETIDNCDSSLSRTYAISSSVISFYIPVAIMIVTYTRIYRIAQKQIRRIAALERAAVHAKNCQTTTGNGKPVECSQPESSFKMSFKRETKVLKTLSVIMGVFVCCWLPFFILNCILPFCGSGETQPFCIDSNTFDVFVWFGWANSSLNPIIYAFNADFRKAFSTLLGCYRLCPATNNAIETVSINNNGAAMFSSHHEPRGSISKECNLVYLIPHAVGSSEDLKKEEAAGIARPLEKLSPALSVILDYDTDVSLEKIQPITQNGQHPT
- test.method.notes: Displacement of [3H]-SCH-23390 from human recombinant dopamine D1 receptor expressed in CHO cells
Ki for assorted compounds

Here are 2 compounds together with their reported answers.
[
  {
    "smiles.record": "Fc1ccc2c(CN3CCO[C@H](COc4cccc(Cl)n4)C3)c[nH]c2c1",
    "Ki": "> 10 µM"
  },
  {
    "smiles.record": "Clc1ccc(CN2CCO[C@H](CSc3ccccc3)C2)cc1",
    "Ki": "> 10 µM"
  }
]

Okay, now this compound:
Lookup: Report the value of Ki obtained on D(1A) dopamine receptor (Homo sapiens, UniProt P21728) for Cc1ccc(CN2CCO[C@H](CSc3ccccc3)C2)cc1C .
Found: > 10 µM

* * *

- test.method.notes: Drug uptake in rat brain at 0.25 mg/kg, iv administered through cassette dosing at 0.25 hrs
- Assay type: ADME, organism-based
- reported.conditions: read-out: Drug uptake
Record true whenever concentration at 0.25 h is at 200 ng/g or higher; record false when lower.

Worked examples, 4 compounds total:
[
  {
    "smiles.record": "Cc1ccc(CN2CCO[C@H](CSc3ccccc3)C2)cc1C",
    "label": "false"
  },
  {
    "smiles.record": "Clc1ccc2c(CN3CCO[C@H](COc4ccccc4)C3)c[nH]c2c1",
    "label": "true"
  },
  {
    "smiles.record": "COc1ccc(CN2CCO[C@H](COc3ccccc3)C2)cc1F",
    "label": "false"
  },
  {
    "smiles.record": "Cn1ncc2cc(CN3CCO[C@H](COc4ccccc4)C3)ccc21",
    "label": "false"
  }
]

Now for a further compound.
Lookup: Please indicate if the recorded concentration at 0.25 h for Clc1ccc(CN2CCO[C@H](CSc3ccccc3)C2)cc1 meets or exceeds 200 ng/g.
Found: false

* * *

- assay.system: D(4) dopamine receptor (Homo sapiens, UniProt P21917)
- test.method.notes: Displacement of [3H]-Spiperone from human recombinant dopamine D4 receptor expressed in CHOK1 cells
# strict inequality: Ki < 20 nM yields Yes, everything else yields No

Some solved cases for reference:
[
  {
    "smiles.record": "c1ccc(OC[C@@H]2CN(Cc3cn4ccccc4n3)CCO2)cc1",
    "label": "No"
  },
  {
    "smiles.record": "Fc1ccc(CN2CCO[C@H](COc3ccccc3)C2)cc1Cl",
    "label": "No"
  },
  {
    "smiles.record": "COc1ccc2c(CN3CCO[C@H](COc4ccccc4)C3)c[nH]c2c1",
    "label": "Yes"
  },
  {
    "smiles.record": "COc1cc(CN2CCO[C@H](COc3ccccc3)C2)ccc1Cl",
    "label": "Yes"
  },
  {
    "smiles.record": "COc1ccc(CN2CCO[C@H](COc3ccccc3)C2)cc1F",
    "label": "Yes"
  },
  {
    "smiles.record": "COc1cc(CN2CCO[C@H](COc3cccc(C#N)c3)C2)ccc1Cl",
    "label": "No"
  },
  {
    "smiles.record": "COc1ccc(CN2CCO[C@H](COc3ccc(F)cc3)C2)cc1",
    "label": "Yes"
  },
  {
    "smiles.record": "COc1ccc(CN2CCO[C@H](COc3cccc(C#N)c3)C2)cc1Cl",
    "label": "No"
  },
  {
    "smiles.record": "Clc1ccc(CN2CCO[C@H](COc3ccccc3)C2)cc1",
    "label": "No"
  },
  {
    "smiles.record": "c1ccc(OC[C@@H]2CN(Cc3ccc4ccccc4c3)CCO2)cc1",
    "label": "Yes"
  }
]

Lookup: Please determine if c1ccc(OC[C@@H]2CN(Cc3ncn4ccccc34)CCO2)cc1 is below 20 nM in terms of Ki.
Found: No

Lookup: Strictly below 20 nM in Ki? Clc1ccc(CN2CCO[C@H](CSc3ccccc3)C2)cc1
Found: Yes

Lookup: Please check: Ki for COc1cc(CN2CCO[C@H](COc3ccccc3)C2)ccc1F , strictly under 20 nM or not?
Found: Yes

Lookup: is_below(Ki, 20 nM) for COc1ccc(OC[C@@H]2CN(Cc3ccc(Cl)cc3)CCO2)cc1 ?
Found: No

Value source: ChEMBL document CHEMBL3792377
